MEASURED_TARGET: sGC α1/β1 heterodimer (Homo sapiens (Human), UniProt Q02108+Q02153)
Sequence (Q02108 whole entry): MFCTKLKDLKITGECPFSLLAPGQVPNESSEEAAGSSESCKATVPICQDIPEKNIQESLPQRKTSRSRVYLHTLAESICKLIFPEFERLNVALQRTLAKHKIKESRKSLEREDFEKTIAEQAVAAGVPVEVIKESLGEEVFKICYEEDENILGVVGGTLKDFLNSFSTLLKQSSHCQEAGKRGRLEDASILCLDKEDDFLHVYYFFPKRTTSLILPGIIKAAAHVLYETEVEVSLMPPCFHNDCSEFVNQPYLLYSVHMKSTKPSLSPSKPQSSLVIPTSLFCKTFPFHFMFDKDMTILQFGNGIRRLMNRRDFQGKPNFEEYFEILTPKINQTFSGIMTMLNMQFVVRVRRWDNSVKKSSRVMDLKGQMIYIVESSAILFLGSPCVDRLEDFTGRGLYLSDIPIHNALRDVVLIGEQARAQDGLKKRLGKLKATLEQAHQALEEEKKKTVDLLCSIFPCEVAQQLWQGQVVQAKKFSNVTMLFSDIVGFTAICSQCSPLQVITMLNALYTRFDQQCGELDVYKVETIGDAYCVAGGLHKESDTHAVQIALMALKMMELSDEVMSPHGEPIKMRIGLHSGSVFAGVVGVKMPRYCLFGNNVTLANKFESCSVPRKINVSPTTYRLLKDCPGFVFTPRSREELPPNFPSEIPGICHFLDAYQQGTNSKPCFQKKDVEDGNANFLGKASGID
Sequence (Q02153 whole entry): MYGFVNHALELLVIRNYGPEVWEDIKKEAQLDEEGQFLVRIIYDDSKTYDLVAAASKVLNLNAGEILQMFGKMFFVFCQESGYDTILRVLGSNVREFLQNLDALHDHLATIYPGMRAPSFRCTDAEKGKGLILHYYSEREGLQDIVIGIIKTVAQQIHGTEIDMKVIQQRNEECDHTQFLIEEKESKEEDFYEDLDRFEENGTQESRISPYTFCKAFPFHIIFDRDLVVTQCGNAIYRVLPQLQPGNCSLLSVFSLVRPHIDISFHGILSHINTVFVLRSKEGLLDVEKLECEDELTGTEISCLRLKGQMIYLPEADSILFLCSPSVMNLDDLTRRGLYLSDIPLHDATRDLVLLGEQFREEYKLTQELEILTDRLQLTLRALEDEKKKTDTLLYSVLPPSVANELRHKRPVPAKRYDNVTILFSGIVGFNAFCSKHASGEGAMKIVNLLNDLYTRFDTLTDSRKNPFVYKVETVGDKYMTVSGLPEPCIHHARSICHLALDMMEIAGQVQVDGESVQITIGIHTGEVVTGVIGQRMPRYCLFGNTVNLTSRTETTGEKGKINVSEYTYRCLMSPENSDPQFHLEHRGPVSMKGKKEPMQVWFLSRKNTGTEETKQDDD
MEASUREMENT_DESCRIPTION: Cell-based sGC functional assay (cyclic GMP assay for sGC activator: CASA assay)
ASSAY_SETUP: inflection point, 4P fit; CHO-K1/sGC cells; read-out: IP
READOUT_LABEL: EC50 (nM)

> print(dat)
                                   compound                           measured.target  test.result
1  CCCCn1nc(-c2nc(N)c3c(n2)NC(=O)C3(C)c2ccc(CC(C)(C)C(=O)O)cc2)c2ccc(Cl)cc21 (stereo not drawn) [Example 37B]  sGC α1/β1 heterodimer (Homo sapiens (Human), UniProt Q02108+Q02153)          762
2  CC(C)(Cc1csc([C@]2(C)C(=O)Nc3nc(-c4nn(Cc5ncccc5F)c5cc(Cl)ccc45)nc(N)c32)n1)C(=O)O [Example 185A]  sGC α1/β1 heterodimer (Homo sapiens (Human), UniProt Q02108+Q02153)          426
3  CC(C)(Cc1csc([C@]2(C)C(=O)Nc3nc(-c4nn(Cc5cccc(F)c5)c5ccccc45)nc(N)c32)n1)C(=O)O [Example 222A]  sGC α1/β1 heterodimer (Homo sapiens (Human), UniProt Q02108+Q02153)           71
4  CC(C)(Cc1coc(C2(C)C(=O)Nc3nc(-c4nn(CC5CCCC5)c5cc(Cl)ccc45)nc(N)c32)n1)C(=O)O (stereo not drawn) [Example 161A]  sGC α1/β1 heterodimer (Homo sapiens (Human), UniProt Q02108+Q02153)          291
5  CC(C)(Cc1coc(C2(C3CC3)C(=O)Nc3nc(-c4nn(Cc5ccccc5F)c5cc(F)ccc45)nc(N)c32)n1)C(=O)O (stereo not drawn) [Example 139B]  sGC α1/β1 heterodimer (Homo sapiens (Human), UniProt Q02108+Q02153)         3460
6  C[C@@]1(c2ccc(CCC(=O)O)cc2)C(=O)Nc2nc(-c3nn(CCC(F)(F)C(F)(F)F)c4cc(Cl)ccc34)nc(N)c21 [Example 10B]  sGC α1/β1 heterodimer (Homo sapiens (Human), UniProt Q02108+Q02153)          456
